Experiment: Specificity (blocking) study with excess DOTA-LM3
Conditions: athymic nude Foxn1^nu, mouse, pancreas, with DOTA-LM3, 2000-fold excess, co-injected as blocking agent, total radioactivity, Uptake Pancreas, 4 hours blocking, co-injected 2000-fold excess of DOTA-LM3
Where a SMILES comes first, the peptide text is derived from it. Bridges are numbered along the chain shown (N, C = ends). [ ]: non-standard residue; d: D form. The star is where a group is joined. X2 = O=C(O)CN1CCN(CC(=O)O)CCN([C@H](CCC(=O)*)C(=O)O)CC1; dPhe(4-NHCONH2) = NC(=O)Nc1ccc(C[C@@H](N)C(=O)O)cc1; Phe(4-Cl) = N[C@@H](Cc1ccc(Cl)cc1)C(=O)O

compound	tissue uptake at 4 h [%ID/g]
C[C@@H](O)[C@@H]1NC(=O)[C@H](CCCCN)NC(=O)[C@@H](Cc2ccc(NC(N)=O)cc2)NC(=O)[C@H](Cc2ccc(O)cc2)NC(=O)[C@H](NC(=O)[C@H](Cc2ccc(Cl)cc2)NC(=O)CC[C@H](C(=O)O)N2CCN(CC(=O)O)CCN(CC(=O)O)CC2)CSSC[C@@H](C(=O)N[C@H](Cc2ccc(O)cc2)C(N)=O)NC1=O [[^64Cu]Cu-NODAGA-LM3, metal not drawn] (X2-[Phe(4-Cl)][dC]Y[dPhe(4-NHCONH2)]KTC[dY]-NH2; disulfide 2-7)	0.12
